Hey, just so you know, these numbers are from patent EP4631938A1.

Molecular target: human recombinant 5-HT2C receptor (Homo sapiens)
Construct: expressed in transfected cells; host or cells: Jump-In HEK cells (membrane preparation)
Sequence (P28335 33-458): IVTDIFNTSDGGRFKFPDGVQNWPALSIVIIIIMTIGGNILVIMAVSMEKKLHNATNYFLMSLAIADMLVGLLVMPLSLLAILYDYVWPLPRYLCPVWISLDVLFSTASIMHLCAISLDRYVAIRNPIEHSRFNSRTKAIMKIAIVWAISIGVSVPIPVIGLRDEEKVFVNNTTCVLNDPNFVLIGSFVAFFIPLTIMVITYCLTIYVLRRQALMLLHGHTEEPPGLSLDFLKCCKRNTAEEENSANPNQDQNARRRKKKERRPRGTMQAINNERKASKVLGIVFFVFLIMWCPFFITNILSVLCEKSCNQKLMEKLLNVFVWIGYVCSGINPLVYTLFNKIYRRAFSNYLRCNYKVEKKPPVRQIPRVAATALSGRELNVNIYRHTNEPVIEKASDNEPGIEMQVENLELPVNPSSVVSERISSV
Experiment: Test Example 2-2: 5-HT2C receptor binding inhibition test ([3H]-Mesulergine; non-specific ligand Ketanserin)
Conditions: non-specific binding with 500 µmol/L Ketanserin, 37°C, 2 hours
pKi: −log10 of the molar value.
VALUE KIND: pKi

# SMILES STR, VALUE REPORTED
measured = [
    ("Cn1ncc(C#N)c1-c1cc(Nc2ncc(C(F)(F)F)cc2F)ccc1OCCO", 8.80),
    ("Cn1cnc(C#N)c1-c1cc(Nc2ncc(C(F)(F)F)cc2F)ccc1OCCO", 8.30),
    ("Cc1ncnc(C)c1-c1cc(Nc2ccc(OC(F)(F)F)cn2)ccc1OCCO", 8.63),
    ("Cn1ncc(C#N)c1-c1cc(Nc2ncc(C(F)(F)F)cc2F)cnc1OCCO", 8.20),
    ("C=C(C)c1cnn(C)c1-c1cc(Nc2ncc(C(F)(F)F)cc2F)ccc1OCCO", 8.99),
]

###

target: human recombinant 5-HT2C receptor (Homo sapiens, UniProt P28335); construct: expressed in transfected cells; host or cells: Jump-In HEK cells (membrane preparation); experiment: Test Example 2-2: 5-HT2C receptor binding inhibition test ([3H]-Mesulergine; non-specific ligand Ketanserin); conditions: non-specific binding with 500 µmol/L Ketanserin, 37°C, 2 hours
pKi: −log10 of the molar value.
Listed next: entries and their corresponding pKi.

# SMILES STR, pKi
rows = [
    ("Cc1ccncc1-c1cc(Nc2ncc(C(F)(F)F)cc2F)ccc1OCCO", 8.13),
    ("Cc1cc(OCCO)c(-c2c(C#N)cnn2C)cc1Nc1ncc(C(F)(F)F)cc1F", 7.00),
    ("Cc1cnn(C2CC2)c1-c1cc(Nc2ncc(C(F)(F)F)cc2F)ccc1OCCO", 9.07),
    ("Cn1ncc(Br)c1-c1cc(Nc2ncccc2F)ccc1OCCO", 8.42),
    ("Cn1ncc(Br)c1-c1cc(Nc2nc(C3CC3)ns2)ccc1OCCO", 8.21),
    ("Cn1ncc(Br)c1-c1cc(Nc2ncc(C(F)(F)F)cn2)ncc1OCCO", 8.73),
    ("OCCOc1ccc(Nc2ncc(C(F)(F)F)cc2F)cc1-c1c(Br)cnn1C1CC1", 9.71),
    ("Cc1ccc(-c2cc(Nc3ncc(C(F)(F)F)cc3F)ccc2OCCO)c(C)n1", 8.43),
    ("Cc1cnn(C)c1-c1cc(Nc2ncc(C(F)(F)F)cc2F)ccc1OCCO", 9.09),
    ("COc1cnc(Nc2ccc(OCCO)c(-c3c(Br)cnn3C)c2)c(F)c1", 9.20),
    ("C=Cc1cnn(C)c1-c1cc(Nc2ncc(C(F)(F)F)cc2F)ccc1OCCO", 8.90),
    ("Cn1ncc(Br)c1-c1cc(Nc2ccc(Cl)cn2)c(F)cc1OCCO", 9.45),
    ("Cn1ncc(Br)c1-c1cc(Nc2nc3cnccc3s2)ccc1OCCO", 8.52),
    ("Cn1nccc1-c1cc(Nc2ncc(C(F)(F)F)cc2F)ncc1OCCO", 7.52),
    ("Cn1ncc(Br)c1-c1cc(Nc2ccc(C(F)(F)F)cn2)c(F)cc1OCCO", 9.69),
    ("Cc1cnn(C)c1-c1cc(Nc2ncc(C(F)(F)F)cc2F)ncc1OCCO", 8.68),
    ("Cn1ncc(Br)c1-c1cc(Nc2ncc(C3CC3)s2)cnc1OCCO", 9.02),
    ("Cc1nc(C)c(-c2cc(Nc3ncc(Cl)cc3F)ccc2OCCO)c(C)n1", 8.50),
]

###

molecular target: human recombinant 5-HT2C receptor (Homo sapiens, UniProt P28335); construct: expressed in transfected cells; host or cells: Jump-In HEK cells (membrane preparation); assay: Test Example 2-2: 5-HT2C receptor binding inhibition test ([3H]-Mesulergine; non-specific ligand Ketanserin); conditions: non-specific binding with 500 µmol/L Ketanserin, 37°C, 2 hours
VALUE KIND: Ki (nM)

# SMILES STR, VALUE KIND, VALUE REPORTED
data = [
    ("CCc1cnn(C)c1-c1cc(Nc2ncc(C(F)(F)F)cc2F)ccc1OCCO", "Ki", 0.745),
    ("Cc1nnn(C)c1-c1cc(Nc2ncc(C(F)(F)F)cc2F)ccc1OCCO", "Ki", 3.43),
    ("Cn1ncc(Br)c1-c1cc(Nc2ncc(Cl)cn2)c(F)cc1OCCO", "Ki", 1.35),
    ("Cn1ncc(C#N)c1-c1cc(Nc2ncc(C(F)(F)F)cc2F)c(F)cc1OCCO", "Ki", 6.23),
    ("Cn1ncc(Br)c1-c1cc(Nc2cc(C(F)(F)F)ccn2)ccc1OCCO", "Ki", 4.26),
]

###

Biological target: human recombinant 5-HT2C receptor (Homo sapiens)
Construct: expressed in transfected cells; host or cells: Jump-In HEK cells (membrane preparation)
Sequence (P28335 33-458): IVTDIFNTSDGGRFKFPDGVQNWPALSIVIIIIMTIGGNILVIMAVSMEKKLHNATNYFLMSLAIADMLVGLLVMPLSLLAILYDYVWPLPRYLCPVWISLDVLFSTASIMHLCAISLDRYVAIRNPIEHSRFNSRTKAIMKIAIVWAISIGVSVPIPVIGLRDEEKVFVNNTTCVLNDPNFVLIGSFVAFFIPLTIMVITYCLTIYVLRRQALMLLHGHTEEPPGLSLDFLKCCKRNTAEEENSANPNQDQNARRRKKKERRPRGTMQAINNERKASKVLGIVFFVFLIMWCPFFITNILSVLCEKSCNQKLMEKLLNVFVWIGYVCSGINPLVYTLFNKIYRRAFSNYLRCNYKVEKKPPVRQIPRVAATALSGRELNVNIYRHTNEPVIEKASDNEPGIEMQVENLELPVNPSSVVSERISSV
Experiment: Test Example 2-2: 5-HT2C receptor binding inhibition test ([3H]-Mesulergine; non-specific ligand Ketanserin)
Conditions: non-specific binding with 500 µmol/L Ketanserin, 37°C, 2 hours
Quick reference: Ki of the listed items.
VALUE KIND: Ki (nM)

# SMILES STR, VALUE KIND, VALUE REPORTED
measured = [
    ("Cn1ncc(Br)c1-c1cc(Nc2ncc(C(F)(F)F)cc2F)ncc1OCCO", "Ki", 0.366),
    ("Cn1ncc(Br)c1-c1cc(Nc2ncc(F)cc2F)ccc1OCCO", "Ki", 0.699),
    ("Cn1ncc(Br)c1-c1cc(Nc2nccc3cccnc23)ccc1OCCO", "Ki", 24.2),
    ("Cn1ncc(Br)c1-c1cc(Nc2nc3cc(Cl)ccc3[nH]2)ccc1OCCO", "Ki", 1.1),
    ("Cc1nc(C)c(-c2cc(Nc3ccc(C(F)(F)F)cn3)ccc2OCCO)c(C)n1", "Ki", 1.38),
    ("Cc1noc(C)c1-c1cc(Nc2ncc(C(F)(F)F)cc2F)c(F)cc1OCCO", "Ki", 4.75),
    ("Cc1cnc(Nc2ccc(OCCO)c(-c3c(Br)cnn3C)c2)c(F)c1", "Ki", 0.641),
    ("Cn1cnc(Br)c1-c1cc(Nc2ncc(F)cc2F)ccc1OCCO", "Ki", 8.32),
    ("Cn1ncc(Br)c1-c1cc(Nc2nc3cc(Br)ccc3n2C)ccc1OCCO", "Ki", 0.297),
    ("Cn1ncc(F)c1-c1cc(Nc2ncc(Cl)cc2F)cnc1OCCO", "Ki", 7.73),
    ("Cn1ncc(Br)c1-c1cc(Nc2ccc(C(C)(F)F)cn2)ccc1OCCO", "Ki", 2.74),
    ("Cn1ncc(Br)c1-c1cc(Nc2ncc(C3CC3)cn2)cnc1OCCO", "Ki", 2.53),
    ("CCn1ncc(Br)c1-c1cc(Nc2ncc(C(F)(F)F)cc2F)ccc1OCCO", "Ki", 0.17),
    ("Cc1cccc(F)c1-c1cc(Nc2ncc(C(F)(F)F)cc2F)ccc1OCCO", "Ki", 5.38),
    ("Cc1cnn(C)c1-c1cc(Nc2ncc(Cl)cc2F)ccc1OCCO", "Ki", 1.06),
    ("CCn1ncc(C)c1-c1cc(Nc2ncc(C(F)(F)F)cc2F)ccc1OCCO", "Ki", 1.15),
    ("Cn1ncc(Br)c1-c1cc(Nc2ncc(Cl)c3ccccc23)ccc1OCCO", "Ki", 3.09),
    ("Cc1nc(C)c(-c2cc(Nc3ccc(Cl)cn3)ccc2OCCO)c(C)n1", "Ki", 5.59),
    ("Cn1ncc(F)c1-c1cc(Nc2ncc(C(F)(F)F)cc2F)cnc1OCCO", "Ki", 3.47),
    ("Cn1ncc(Br)c1-c1cc(Nc2ncc(Cl)s2)cnc1OCCO", "Ki", 3.26),
    ("Cn1ncc(Cl)c1-c1cc(Nc2ncc(F)cc2F)ccc1OCCO", "Ki", 0.772),
    ("Cn1ncc(Br)c1-c1cc(Nc2ncc(Cl)cc2F)cnc1OCCO", "Ki", 0.305),
    ("Cc1cc(C)c(-c2cc(Nc3ncc(C(F)(F)F)cc3F)ccc2OCCO)c(C)c1", "Ki", 4.1),
    ("OCCOc1ccc(Nc2ncc(C(F)(F)F)cc2F)cc1-c1ccnc(F)c1Cl", "Ki", 7.89),
    ("Cn1ncc(Br)c1-c1cc(Nc2ncc(Br)cc2F)ccc1OCCO", "Ki", 0.165),
    ("Cn1ncc(Br)c1-c1cc(Nc2ncc(C(F)(F)F)cc2F)c(F)cc1OCCO", "Ki", 0.239),
    ("Cn1ncc(Br)c1-c1cc(Nc2nc3cc(F)ccc3[nH]2)ccc1OCCO", "Ki", 3.25),
    ("Cn1ncc(Br)c1-c1cc(Nc2nc(C(F)(F)F)cs2)ccc1OCCO", "Ki", 1.92),
    ("Cc1cnn(C)c1-c1cc(Nc2ncc(C(F)(F)F)cc2F)c(F)cc1OCCO", "Ki", 2.49),
    ("Cn1ncc(C#N)c1-c1cc(Nc2ccc(Cl)cn2)ccc1OCCO", "Ki", 7.3),
    ("Cn1ncc(Br)c1-c1cc(Nc2ncc(C#N)cc2F)ccc1OCCO", "Ki", 15.1),
    ("Cn1ncc(C#N)c1-c1cc(Nc2ccc(C(F)(F)F)cn2)ccc1OCCO", "Ki", 7.15),
    ("Cn1ncc(Br)c1-c1cc(Nc2nc3ccccc3o2)ccc1OCCO", "Ki", 8.83),
    ("Cn1ncc(Cl)c1-c1cc(Nc2ncc(Cl)cc2F)ncc1OCCO", "Ki", 1.78),
    ("Cn1ncc(Br)c1-c1cc(Nc2ncc(C#N)s2)ccc1OCCO", "Ki", 1.4),
]
